- assay.target: EZH2 (rPRC2) (Homo sapiens)
- Sequence (Q15910 whole entry): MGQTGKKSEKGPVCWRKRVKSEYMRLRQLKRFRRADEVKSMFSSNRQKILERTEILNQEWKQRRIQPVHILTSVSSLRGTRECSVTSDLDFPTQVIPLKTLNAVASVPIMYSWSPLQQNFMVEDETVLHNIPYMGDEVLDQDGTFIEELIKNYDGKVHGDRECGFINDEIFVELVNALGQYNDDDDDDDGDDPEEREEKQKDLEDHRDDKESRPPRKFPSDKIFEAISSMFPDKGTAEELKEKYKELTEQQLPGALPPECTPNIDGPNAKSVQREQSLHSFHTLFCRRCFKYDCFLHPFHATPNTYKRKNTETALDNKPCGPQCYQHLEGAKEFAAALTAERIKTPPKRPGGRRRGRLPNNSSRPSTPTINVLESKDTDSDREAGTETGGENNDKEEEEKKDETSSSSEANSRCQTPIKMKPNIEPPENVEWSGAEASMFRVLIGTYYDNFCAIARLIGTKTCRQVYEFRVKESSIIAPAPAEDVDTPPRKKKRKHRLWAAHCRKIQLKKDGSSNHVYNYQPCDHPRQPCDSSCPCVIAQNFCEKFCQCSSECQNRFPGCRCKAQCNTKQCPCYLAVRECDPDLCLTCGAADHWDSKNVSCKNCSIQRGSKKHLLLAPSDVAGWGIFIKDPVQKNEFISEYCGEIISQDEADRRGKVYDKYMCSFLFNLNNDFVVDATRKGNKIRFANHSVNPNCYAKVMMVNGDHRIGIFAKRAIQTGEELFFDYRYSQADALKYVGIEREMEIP
- Sequence (O75530 whole entry partner): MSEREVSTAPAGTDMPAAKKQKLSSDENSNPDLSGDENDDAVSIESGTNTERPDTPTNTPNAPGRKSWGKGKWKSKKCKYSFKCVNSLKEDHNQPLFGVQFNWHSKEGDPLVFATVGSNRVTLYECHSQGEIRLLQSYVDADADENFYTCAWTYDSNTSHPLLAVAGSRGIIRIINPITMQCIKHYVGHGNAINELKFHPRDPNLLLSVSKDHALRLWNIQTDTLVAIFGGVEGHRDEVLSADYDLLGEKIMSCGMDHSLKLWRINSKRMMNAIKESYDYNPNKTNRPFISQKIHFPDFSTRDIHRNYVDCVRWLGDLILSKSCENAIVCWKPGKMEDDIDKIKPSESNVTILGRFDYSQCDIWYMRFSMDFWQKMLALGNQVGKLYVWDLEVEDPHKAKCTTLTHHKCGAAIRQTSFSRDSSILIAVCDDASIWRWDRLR
- Sequence (Q15022 whole entry partner): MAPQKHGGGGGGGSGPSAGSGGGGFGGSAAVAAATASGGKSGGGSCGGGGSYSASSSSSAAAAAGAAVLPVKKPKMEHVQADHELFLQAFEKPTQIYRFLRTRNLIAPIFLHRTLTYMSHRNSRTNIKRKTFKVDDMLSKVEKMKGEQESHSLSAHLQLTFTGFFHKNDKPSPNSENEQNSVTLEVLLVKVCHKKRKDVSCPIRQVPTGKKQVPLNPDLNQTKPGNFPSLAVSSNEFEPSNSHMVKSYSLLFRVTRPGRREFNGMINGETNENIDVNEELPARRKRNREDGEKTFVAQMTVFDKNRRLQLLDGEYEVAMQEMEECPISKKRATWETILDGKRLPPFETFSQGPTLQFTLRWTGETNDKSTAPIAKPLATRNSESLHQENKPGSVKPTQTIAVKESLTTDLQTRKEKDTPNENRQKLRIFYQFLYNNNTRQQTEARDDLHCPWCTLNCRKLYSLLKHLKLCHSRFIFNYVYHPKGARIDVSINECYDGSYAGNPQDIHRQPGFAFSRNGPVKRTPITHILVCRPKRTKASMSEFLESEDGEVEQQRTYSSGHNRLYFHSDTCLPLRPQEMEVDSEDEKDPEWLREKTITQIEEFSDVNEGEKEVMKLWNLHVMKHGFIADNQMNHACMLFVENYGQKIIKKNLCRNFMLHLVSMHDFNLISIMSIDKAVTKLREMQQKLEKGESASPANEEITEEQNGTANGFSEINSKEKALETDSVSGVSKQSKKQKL
- test.summary: EZH2 assay: rPRC2, biotinylated oligonucleosomes, 3H SAM methyl transfer (FlashPlate scintillation)
- Assay type: biochemical
- recorded.conditions: wild-type EZH2 (rPRC2), biotinylated oligonucleosome substrate; read-out: EZH2 IC50
pIC50: −log10 of the molar value.
attribute.measured: pIC50

>>> print(df.to_string())
                                   compound   measurement
0  Cc1cc(C)c(CNC(=O)c2c(C)n(-c3ccccc3)c3ccccc23)c(O)n1        > 7.00
1  COc1cc(C)[nH]c(=O)c1CNC(=O)c1c(C)n(C(C)C(C)OC)c2ncccc12 (single isomer, unassigned)        > 7.00
2  CC[C@@H](C)n1c(C)c(C(=O)NCc2c(C)cc(C)[nH]c2=O)c2cnc(CO)nc21  6.00 to 7.00

Required: pIC50, one value per compound below.
1. Cc1cc(C)c(CNC(=O)c2c(C)n(C(C)Cn3ccccc3=O)c3ncccc23)c(=O)[nH]1 (racemic)
2. CNC(=O)c1cccc(C(C)n2c(C)c(C(=O)NCc3c(OC)cc(C)[nH]c3=O)c3cccnc32)c1 (stereo not drawn)
3. COc1cc(C)[nH]c(=O)c1CNC(=O)c1c(C)n(C(C)C2CCN(S(C)(=O)=O)CC2)c2ncncc12 (stereo not drawn)
4. COc1cc(C)[nH]c(=O)c1CNC(=O)c1c(C)n(-c2cccc3c2CCCN3S(C)(=O)=O)c2ccccc12
5. CC[C@@H](C)n1c(C)c(C(=O)NCc2c(C)cc(C)nc2O)c2cnc(-c3ccccc3)nc21
6. COc1cc(C)[nH]c(=O)c1CNC(=O)c1c(C)n(-c2cccc3c2CCCN3)c2ccccc12
7. Cc1cc(C)c(COC(=O)c2c(C)n(C3CCc4ccccc43)c3ncccc23)c(=O)[nH]1 (racemic)
8. Cc1cc(C)c(CNC(=O)c2cn(-c3ccccc3C)c3ccccc23)c(O)n1

Response:
6.00 to 7.00
> 7.00
> 7.00
> 7.00
6.00 to 7.00
> 7.00
> 7.00
6.00 to 7.00
